I'd appreciate it if you could supply IC50 values for the items below.
subject of test: CyclinE1/CDK2 (Homo sapiens)
Construct: purchased Eurofins, discovery 14-475
experiment: Fluorescence Polarization (FP) competitive binding assay, Cyclin E1/Cdk2;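 note: readings taken after two-hour equilibration at room temperature in HEPES buffer with NaCl, DTT, NP-40 and BSA, IC50 fitted from eight-concentration serial dilution series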
conditions used: 10 nM Cyclin E1/Cdk2, 2 nM FAM probe; average of 2-3 independent experiments; read-out: Cyclin E FP IC50
*1 amine or outer side, *2 acyl side, *3 side chain or, on linkers, in order; H or OH if unused. Where a SMILES comes first, the peptide text is derived from it. Bridges are numbered along the chain shown (N, C = ends). [ ]: non-standard residue; d: D form. The star is where a group is joined. X205 = CC(C)C(=O)N1[C@@H]2COC[C@H]1C=C(c1ccc(F)cc1C[C@@H](C(=O)[*:2])N(C)[*:1])C2; NMehhhLys(Me) = CN([C@@H](CCCCCCCN(C)[*:3])C(=O)[*:2])[*:1]; X174 = CN([C@@H](Cc1cc(Cl)cnc1-c1cnn(C)c1)C(=O)[*:2])[*:1]; NMe(hhhLys) = CN([C@@H](CCCCCCCN[*:3])C(=O)[*:2])[*:1]; Cyclobutanecarbonyl(1-CF3) = O=C(C1(C(F)(F)F)CCC1)*; cBuCO(3,3-F2-1-CF3) = O=C(C1(C(F)(F)F)CC(F)(F)C1)*; Pro(trans-4-F) = O=C(O)[C@@H]1C[C@@H](F)CN1; Gly(cPr) = N[C@H](C(=O)O)C1CC1
Give bare numbers, in nM.

compound: CC(C)C[C@@H]1NC(=O)[C@@H](N(C)C(=O)[C@@H](NC(=O)[C@@H]2C[C@@H](F)CN2C(=O)C2(C(F)(F)F)CCC2)C2CC2)CCCCCCCN(C)C(=O)[C@H](Cc2cc(Cl)cnc2-c2cnn(C)c2)N(C)C1=O [Example 247] ({Cyclobutanecarbonyl(1-CF3)}-[Pro(trans-4-F)][Gly(cPr)][NMehhhLys(Me)]L[X174]; lactam 3-C)
units text: nM
IC50: 310

// next entry
What IC50 value was documented for this compound, CC(C)C[C@@H]1NC(=O)[C@@H](N(C)C(=O)[C@@H](NC(=O)[C@@H]2C[C@@H](F)CN2C(=O)C2(C(F)(F)F)CC(F)(F)C2)C2CC2)CCCCCCCNC(=O)[C@H](Cc2cc(F)ccc2C2=C[C@@H]3COC[C@H](C2)N3C(=O)C(C)C)N(C)C1=O [Example 325] ({cBuCO(3,3-F2-1-CF3)}-[Pro(trans-4-F)][Gly(cPr)][NMe(hhhLys)]L[X205]; lactam 3-C) ?
300
